Assay: Primary qHTS for inhibitors of nuclear receptor binding SET domain protein 2 (NSD2) in an RCH-ACV wild type WT cells (2C) (AID 1645877); also: nearly all actives have a fitted effect of over 70% in size
Conditions: RCH-ACV (leukaemia line) NSD2 WT (2C) viability, CellTiter-Glo, 72 h; series mostly up to 44.9 µM
Records with an inconclusive call do not appear. Active and inactive are the calls of the source. Calls follow the shape of the dose curve; as a rule, active = well fitted inhibition curve with a large enough effect; inconclusive = small, poorly fitted or top-dose-only effect; inactive = no such curve, though single readings can be large or run the other way.
Entry note: the call must match one of 1.0 (active), 0.0 (inactive)

{"columns": ["compound", "discrete label"],
 "data": [
  ["Cc1cccc(S(=O)(=O)N2CCC[C@@H]2CCN2CCC(C)CC2)c1", 0.0]
]}

**Query** Record request — test call for CCCC(=O)NCCc1csc(-c2ccc(Cl)cc2)n1
**Result** 1.0

**Query** Record request — test call for O=C(O)C(O[C@@H]1O[C@H](CO[C@@H]2O[C@H](CO)[C@@H](O)[C@H](O)[C@H]2O)[C@@H](O)[C@H](O)[C@H]1O)c1ccccc1 (stereo partly drawn)
**Result** 0.0

**Query** Record request — test call for C=C(C)C(=O)O[C@H]1CC2=CC(C/C(C)=C\[C@H]3OC(=O)C(=C)[C@H]13)OC2=O (stereo partly drawn)
**Result** 1.0

**Query** Record request — test call for C=CC1(C)C=C2CCC3C(C)(C)C(O[C@@H]4O[C@@H](CO)[C@H](O)[C@H]4O)CCC3(C)C2CC1O[C@@H]1O[C@H](C)[C@H](O)[C@H](O)[C@H]1O (stereo partly drawn)
**Result** 0.0

**Query** Record request — test call for Cc1ccccc1NC(=O)Nc1ccc(CC(=O)N(C)[C@@H](CC(C)C)C(=O)NCC[C@H](NC(=O)[C@@H]2CCCN2S(=O)(=O)c2cc(Cl)cc(Cl)c2)C(=O)O)cc1
**Result** 0.0

**Query** Record request — test call for C=C(C(=O)O)C1CCC2(C)CCC(O)C(=C)C2C1 (stereo not drawn)
**Result** 0.0

**Query** Record request — test call for CC1=CC(=O)CC2C1(O)CCC(C)C21CC(c2ccoc2)OC1=O (stereo not drawn)
**Result** 0.0

---

Assay: qHTS drug screen for cell cycle checkpoint inhibitors in PARPi-resistant BRCA-mutant ovarian cancer cell lines. (AID 1963452); also: potency is read from the fitted curve at half-maximal effect
Conditions: PEO1/OlaR viability, CellTiter-Glo luminescence, 96 h
Activity calls are given as the source filed them. The call rests on the fitted dose curve.
Consider the following molecules and their measured Potency readings.

Example entries and their recorded answers appear below.
{"columns": ["chemical string", "Potency"],
 "data": [
  ["CC(C)c1cc(CNc2nc(Nc3cc(C4CC4)[nH]n3)cc(N3CCN(C)CC3)n2)on1", "549 nM (active)"],
  ["COc1ccc(N(C)c2nc(C)nc3ccccc23)cc1", "3.9 nM (active)"],
  ["Cc1cc(Nc2cc(N3CCN(C)CC3)nc(/C=C/c3ccccc3)n2)n[nH]1", "490 nM (active)"],
  ["COc1cc2ncnc(Nc3ccc(F)c(Cl)c3)c2cc1NC(=O)/C=C/CN1CCCCC1", "6920 nM (active)"]
]}

Now for another entry.
**Query** What does the data say about its Potency? Entry: COc1cccc(Nc2ncnn3ccc(CN4CC[C@@H](N)[C@H](O)C4)c23)c1
**Result** 2190 nM (active)

---

Assay: Primary fluorescence-based thiol-reactive (MSTI) qHTS assay for identification of artifact compounds. (AID 1845221);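 also: thiol-reactive compounds lower the probe fluorescence signal; nearly all actives have a fitted effect of over 65% in size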
Conditions: MSTI thiol-reactivity probe, 1 h; series mostly up to 53.8 µM
Inconclusive results are not listed. Active and inactive are the calls of the source. Calls come from the whole dose curve; as a rule, active = well fitted inhibition curve with a large enough effect; inconclusive = small, poorly fitted or top-dose-only effect; inactive = no such curve, though single readings can be large or run the other way.
measured endpoint: activity change, negative = thiol reactive

**Query** What does the data say about its activity change, negative = thiol reactive? Entry: CC1(C)CC[C@]2(C(=O)O)[C@H](O)C[C@]3(C)C(=CCC4[C@@]5(C)CC[C@H](O[C@@H]6O[C@H](CO[C@@H]7OC[C@H](O)[C@H](O)[C@H]7O[C@@H]7OC[C@@H](O)[C@H](O)[C@H]7O)[C@@H](O)[C@H](O)[C@H]6O[C@@H]6O[C@H](CO)[C@@H](O)[C@H](O)[C@H]6O)C(C)(C)C5CC[C@]43C)[C@@H]2C1 (some centres not stated)
**Result** 242% [at 11.5 µM] (inactive)

**Query** What does the data say about its activity change, negative = thiol reactive? Entry: CC1(C)CC[C@@]2(C(=O)O[C@@H]3O[C@H](CO)[C@@H](O)[C@H](O)[C@H]3O)C(C1)C1=CCC3[C@@]4(C)CC[C@@H](O[C@@H]5O[C@H](C(=O)O)[C@@H](O[C@@H]6OC[C@@H](O)[C@H](O)[C@H]6O)[C@H](O[C@@H]6OC[C@](O)(CO)[C@H]6O)[C@H]5O)C(C)(C)C4CC[C@@]3(C)[C@]1(C)C[C@H]2O (some centres not stated)
**Result** 54.8% [at 11.5 µM] (inactive)
